Target: T1, RAMP2-CTR ECD fusion protein (hRAMP2.55–140-(GSA)3-hCTR.34–141-H6) (human, UniProt O60895 55-140; P30988 34-141)
T1 construct: human receptor activity-modifying protein 2 (RAMP2), extracellular domain, residues 55-140; linker, printed as (GSA)3; human calcitonin receptor (CTR), extracellular domain, residues 34-141; Secreted from a pHLsec-based vector; also called AMY receptor 2 ECD; RAMP2 ECD-CTR ECD fusion; source: HEK293T, transiently transfected, secreted to cell culture media, purified (IMAC, SEC)
T1 chain: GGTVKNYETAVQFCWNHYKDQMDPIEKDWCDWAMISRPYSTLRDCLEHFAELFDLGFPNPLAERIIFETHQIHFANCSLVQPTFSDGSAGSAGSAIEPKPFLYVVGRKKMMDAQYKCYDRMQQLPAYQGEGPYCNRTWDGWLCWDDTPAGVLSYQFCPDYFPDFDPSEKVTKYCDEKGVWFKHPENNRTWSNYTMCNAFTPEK
Test: fluorescence polarisation; competition binding, full curves: FITC-AC413(6–25) Y25P probe 10 nM, RAMP1-CTR ECD 77 nM, RAMP2-CTR ECD 67 nM or RAMP3-CTR ECD 252 nM, competitive peptide at multiple concentrations, all in solution; KI from non-linear regression of anisotropy
Conditions: both partners purified
Where no end group is shown, it is not given here. [ ]: non-standard residue; d: D form. Hyp = O=C(O)[C@@H]1C[C@@H](O)CN1
Reported Ki values are given for each entry in this list.
# output: bare number, implied unit µM

Please review the entries below; each comes with its answer.
# binder, Ki, µM
records = [
    ("YPRTNTGSGTP-NH2 (salmon calcitonin (sCT), residues 22-32; numbers count on: the mature 32-residue hormone; also called wild-type sCT(22–32); salmon calcitonin fragment 22–32; source: synthetic peptide (Genscript, HPLC-purified)) [sCT(22–32)]", 2.8),
    ("YPRTDTGPGT[Hyp]-NH2 (salmon calcitonin (sCT), residues 22-32, with N26D, S29P and P32HYP; numbers count on: the mature 32-residue hormone; Residue 32 is hydroxyproline, not plain proline; also called the mutated sCT(22–32); sCT(22–32) with the combined mutations (N26D, S29P, and P32HYP); source: synthetic peptide (Genscript, HPLC-purified)) [sCT(22–32) N26D/S29P/P32HYP]", 0.34),
    ("YPRTNTGSGT[Hyp]-NH2 (N-terminus assumed; SMILES C[C@@H](O)[C@H](NC(=O)[C@H](CC(N)=O)NC(=O)[C@@H](NC(=O)[C@H](CCCNC(=N)N)NC(=O)[C@@H]1CCCN1C(=O)[C@@H](N)Cc1ccc(O)cc1)[C@@H](C)O)C(=O)NCC(=O)N[C@@H](CO)C(=O)NCC(=O)N[C@H](C(=O)N1C[C@H](O)C[C@H]1C(N)=O)[C@@H](C)O, salmon calcitonin (sCT), residues 22-32, with P32HYP; numbers count on: the mature 32-residue hormone; Residue 32 is hydroxyproline, not plain proline; source: synthetic peptide (Genscript, HPLC-purified)) [sCT(22–32) P32HYP]", 1.43),
]

Consider the record given below.
## Input Request the reported Ki associated with YPRTDTGPGTP-NH2 (salmon calcitonin (sCT), residues 22-32, with N26D and S29P; numbers count on: the mature 32-residue hormone; source: synthetic peptide (Genscript, HPLC-purified)) [sCT(22–32) N26D/S29P]
## Output 0.47
